# Assay Method Text: Atogepant-rifampin drug interaction study: atogepant plasma PK
# Format: in vivo, human
# Applied Conditions: both sexes, human, plasma, oral, Treatment B1: atogepant 60 mg + single-dose rifampin 600 mg; read-out: AUC0-24
Measured Parameter: AUC(0-t) (ng·h/mL)
Supply the numeric figure in ng·h/mL, leaving out any unit text.

Bench note: what AUC(0-t) did C[C@@H]1[C@H](c2c(F)ccc(F)c2F)C[C@H](NC(=O)c2cnc3c(c2)C[C@@]2(C3)C(=O)Nc3ncccc32)C(=O)N1CC(F)(F)F [atogepant] show?
8130

---

# Assay Method Text: Hepatic impairment study: atogepant plasma PK
# Assay type: in vivo, human
# Applied Conditions: human, plasma, oral, 60 mg, severe hepatic impairment; read-out: Cmax Geometric Least Squares Mean, Test
Measured Parameter: Cmax (ng/mL)
Supply the numeric figure in ng/mL, leaving out any unit text.

Bench note: what Cmax did C[C@@H]1[C@H](c2c(F)ccc(F)c2F)C[C@H](NC(=O)c2cnc3c(c2)C[C@@]2(C3)C(=O)Nc3ncccc32)C(=O)N1CC(F)(F)F show?
515

---

# Assay Method Text: Atogepant-rifampin drug interaction study: atogepant plasma PK
# Type: in vivo, human
# Applied Conditions: both sexes, human, plasma, oral, 60 mg, Treatment A: atogepant 60 mg alone; read-out: Cmax
Measured Parameter: Cmax (ng/mL)
Supply the numeric figure in ng/mL, leaving out any unit text.

Bench note: what Cmax did C[C@@H]1[C@H](c2c(F)ccc(F)c2F)C[C@H](NC(=O)c2cnc3c(c2)C[C@@]2(C3)C(=O)Nc3ncccc32)C(=O)N1CC(F)(F)F [atogepant] show?
711

---

# Assay Method Text: Atogepant-rifampin drug interaction study: atogepant plasma PK
# Assay type: in vivo, human
# Applied Conditions: both sexes, human, plasma, oral, 60 mg, Treatment A: atogepant 60 mg alone; read-out: Cmax Geometric LSM, Reference
Measured Parameter: Cmax (µg/mL)
Supply the numeric figure in µg/mL, leaving out any unit text.

Bench note: what Cmax did C[C@@H]1[C@H](c2c(F)ccc(F)c2F)C[C@H](NC(=O)c2cnc3c(c2)C[C@@]2(C3)C(=O)Nc3ncccc32)C(=O)N1CC(F)(F)F show?
0.649

---

# Assay Method Text: Hepatic impairment study: atogepant plasma PK
# Type: in vivo, human
# Applied Conditions: human, plasma, oral, 60 mg, mild hepatic impairment; read-out: Cmax Geometric Least Squares Mean, Test
Measured Parameter: Cmax (ng/mL)
Supply the numeric figure in ng/mL, leaving out any unit text.

Bench note: what Cmax did C[C@@H]1[C@H](c2c(F)ccc(F)c2F)C[C@H](NC(=O)c2cnc3c(c2)C[C@@]2(C3)C(=O)Nc3ncccc32)C(=O)N1CC(F)(F)F [atogepant] show?
587

---

# Assay Method Text: Atogepant-topiramate interaction study, cohort 2: topiramate steady-state PK
# Assay type: in vivo, human
# Applied Conditions: both sexes, human, plasma, 100 mg, Topiramate Alone; read-out: Cmax,ss Geometric LSM
Measured Parameter: Cmax (ng/mL)
Supply the numeric figure in ng/mL, leaving out any unit text.

Bench note: what Cmax did CC1(C)O[C@@H]2[C@@H](CO[C@@]3(COS(N)(=O)=O)OC(C)(C)O[C@@H]23)O1 [topiramate] show?
7500

---

# Assay Method Text: Atogepant-rifampin drug interaction study: atogepant plasma PK
# Format: in vivo, human
# Applied Conditions: both sexes, human, plasma, oral, Treatment B2: atogepant 60 mg + multiple-dose rifampin 600 mg; read-out: Tmax (median)
Measured Parameter: Tmax

Bench note: what Tmax did C[C@@H]1[C@H](c2c(F)ccc(F)c2F)C[C@H](NC(=O)c2cnc3c(c2)C[C@@]2(C3)C(=O)Nc3ncccc32)C(=O)N1CC(F)(F)F show?
1.5 h
